Listed here: items and their measured IC50.
- Target system: UniProtKB P18031
- Sequence (P18031 whole entry): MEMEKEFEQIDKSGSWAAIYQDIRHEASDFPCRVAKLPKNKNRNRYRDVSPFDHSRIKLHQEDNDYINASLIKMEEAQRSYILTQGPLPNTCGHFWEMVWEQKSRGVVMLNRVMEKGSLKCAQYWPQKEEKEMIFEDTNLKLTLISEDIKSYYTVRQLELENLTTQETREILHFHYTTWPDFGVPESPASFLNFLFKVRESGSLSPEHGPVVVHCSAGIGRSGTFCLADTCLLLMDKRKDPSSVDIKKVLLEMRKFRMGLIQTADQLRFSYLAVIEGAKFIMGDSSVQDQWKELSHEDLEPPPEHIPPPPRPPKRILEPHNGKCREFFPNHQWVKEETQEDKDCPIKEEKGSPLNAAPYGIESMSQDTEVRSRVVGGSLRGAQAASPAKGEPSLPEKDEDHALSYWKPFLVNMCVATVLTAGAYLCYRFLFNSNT
- Procedure text: Inhibition of N-terminal His tagged recombinant human PTP1B expressed in Escherichia coli using pNPP as substrate assessed as substrate hydrolysis
Square brackets hold non-standard residues; d marks the D form. Peptide text beside a SMILES is read from it. * marks the point of attachment. ξ: configuration not given here. C22 diacid = O=C(O)CCCCCCCCCCCCCCCCCCCCC(=O)*; C17 diacid = O=C(O)CCCCCCCCCCCCCCCC(=O)*; Docosanoyl = CCCCCCCCCCCCCCCCCCCCCC(=O)*; Heptadecanoyl = CCCCCCCCCCCCCCCCC(=O)*; Pentadecanoyl = CCCCCCCCCCCCCCC(=O)*; ξR = N=C(N)NCCCC(N)C(=O)O

{"columns": ["Molecule", "Target system", "Measure unit", "IC50"],
 "data": [
  ["CCCCCCCCCCCCCCCCC(=O)N[C@H](C(=O)N[C@@H](C)C(=O)N[C@@H](CCC(N)=O)C(=O)N[C@@H](CCC(=O)O)C(=O)N[C@@H](CC(C)C)C(=O)N[C@@H](CCCNC(=N)N)C(=O)N[C@@H](CCCNC(=N)N)C(=O)N[C@H](C(=O)NCC(=O)N[C@@H](CC(=O)O)C(=O)N[C@@H](CCC(=O)O)C(=O)N[C@@H](Cc1ccccc1)C(=O)O)[C@@H](C)CC)[C@@H](C)CC (Heptadecanoyl-IAQELRRIGDEF-OH)", "UniProtKB P18031", "nM", 2570],
  ["CC[C@H](C)[C@H](NC(=O)CCCCCCCCCCCCCCCC(=O)O)C(=O)N[C@@H](C)C(=O)N[C@@H](CCC(N)=O)C(=O)N[C@@H](CCC(=O)O)C(=O)N[C@@H](CC(C)C)C(=O)N[C@@H](CCCNC(=N)N)C(=O)NC(CCCNC(=N)N)C(=O)N[C@H](C(=O)NCC(=O)N[C@@H](CC(=O)O)C(=O)N[C@@H](CCC(=O)O)C(=O)N[C@@H](Cc1ccccc1)C(=O)O)[C@@H](C)CC (stereo not given in full) ({C17 diacid}-IAQELR[ξR]IGDEF-OH)", "UniProtKB P18031", "nM", 1360],
  ["CC[C@H](C)[C@H](NC(=O)CCCCCCCCCCCCCCCCCCCCC(=O)O)C(=O)N[C@@H](C)C(=O)N[C@@H](CCC(N)=O)C(=O)N[C@@H](CCC(=O)O)C(=O)N[C@@H](CC(C)C)C(=O)N[C@@H](CCCNC(=N)N)C(=O)NC(CCCNC(=N)N)C(=O)N[C@H](C(=O)NCC(=O)N[C@@H](CC(=O)O)C(=O)N[C@@H](CCC(=O)O)C(=O)N[C@@H](Cc1ccccc1)C(=O)O)[C@@H](C)CC (stereo not given in full) ({C22 diacid}-IAQELR[ξR]IGDEF-OH)", "UniProtKB P18031", "nM", 200],
  ["CCCCCCCCCCCCCCCCCCCCCC(=O)N[C@H](C(=O)N[C@@H](C)C(=O)N[C@@H](CCC(N)=O)C(=O)N[C@@H](CCC(=O)O)C(=O)N[C@@H](CC(C)C)C(=O)N[C@@H](CCCNC(=N)N)C(=O)NC(CCCNC(=N)N)C(=O)N[C@H](C(=O)NCC(=O)N[C@@H](CC(=O)O)C(=O)N[C@@H](CCC(=O)O)C(=O)N[C@@H](Cc1ccccc1)C(=O)O)[C@@H](C)CC)[C@@H](C)CC (stereo not given in full) (Docosanoyl-IAQELR[ξR]IGDEF-OH)", "UniProtKB P18031", "nM", 6780],
  ["CCCCCCCCCCCCCCC(=O)N[C@H](C(=O)N[C@@H](C)C(=O)N[C@@H](CCC(N)=O)C(=O)N[C@@H](CCC(=O)O)C(=O)N[C@@H](CC(C)C)C(=O)N[C@@H](CCCNC(=N)N)C(=O)N[C@@H](CCCNC(=N)N)C(=O)N[C@H](C(=O)NCC(=O)N[C@@H](CC(=O)O)C(=O)N[C@@H](CCC(=O)O)C(=O)N[C@@H](Cc1ccccc1)C(=O)O)[C@@H](C)CC)[C@@H](C)CC (Pentadecanoyl-IAQELRRIGDEF-OH)", "UniProtKB P18031", "nM", 1660]
]}
